# Tested on: A549
# assay-details: NCI tumour cell line growth inhibition, 48 h
The source made the active and inactive calls. Cut-off read from the data, not from the text of the source: active = GI50 up to about 1.1 µM and inactive = higher.
Below: a set of entries, each annotated with reported GI50.
quantity-kind: GI50

CCOP(=O)(C=C=C(C)C)OCC | > 100 µM (inactive)
CN1C(=O)C(O)CC1c1ccccc1F (configuration not stated) | > 100 µM (inactive)
c1ccc(C2Nc3ccccc3C3OCCCC23)cc1 (configuration not stated) | 20.5 µM (inactive)
COC(=O)/C=C/c1ccc2c(c1)CCC2 | 46.1 µM (inactive)
CCOC(=O)c1cc([N+](=O)[O-])c(Sc2ncnc3nc[nH]c23)c([N+](=O)[O-])c1 | 20.5 µM (inactive)
CC1SC2(CCCCC2)N(NC(=O)CSc2nc3ccc(Cl)cc3c(=O)n2-c2ccccc2)C1=O (configuration not stated) | 28.8 µM (inactive)
O=C1O[C@H](c2ccc3c(c2)OCO3)[C@H]2CO[C@@H](c3ccc4c(c3)OCO4)[C@@H]12 | > 100 µM (inactive)
C[N+](C)(C)CC(=O)N/N=C(/Cc1nc2c3c(ccc2nc1O)C(=O)c1ccccc1C3=O)C(=O)Nc1ccc(Cl)c(Cl)c1 | 42.7 µM (inactive)
COc1ccc2c(c1)CCc1c-2[nH]c2ccc(OC)cc12 | > 100 µM (inactive)
CSc1c(C#N)c(=O)n(N)c2[nH]nc(C)c12 | > 100 µM (inactive)
CCOC(=O)c1sc2nc(SC)nc3c2c1NCN3C | 16.9 µM (inactive)
CSC1=N/C(=C\c2ccc(C)cc2)C(=O)N1CN1CCCCC1 | 83.4 µM (inactive)
COC1=C2CC(C)CC(OC)C(O)C(C)/C=C(\C)C(OC(N)=O)C(OC)/C=C\C=C(/C)C(=O)NC(=C(/C=N/N3CCCCC3)C1=O)C2=O (configuration not stated) | 21.5 µM (inactive)
CCOC(=O)/C(=C/c1ccco1)P(=O)(OCC)OCC | > 100 µM (inactive)
NC(=O)C(c1ccccc1)N1OC2C(=O)N(c3cccc4ccccc34)C(=O)C2C1c1c2ccccc2c(Cl)c2ccccc12 (configuration not stated) | 13.9 µM (inactive)
CC1CCC2C(C)C(=O)OC2C2(C)C(=O)C=CC12 (configuration not stated) | > 10 µM (inactive)
N=C1NC(c2ccc(Cl)cc2)=CC(c2cccc(Cl)c2)S1 (configuration not stated) | 24.7 µM (inactive)
COC(=O)CC(=O)OSc1ccccc1 | 12.5 µM (inactive)
CCOC(=O)/C(=C\c1ccc[nH]1)C(=O)c1ccccc1 | > 100 µM (inactive)
O=C1c2c(n(Cc3ccccc3)c(=O)n2Cc2ccccc2)C(=O)N1Cc1ccccc1 | 41.9 µM (inactive)
c1ccc(CNc2ccc3[nH]c4cnccc4c3c2)cc1 | 17.9 µM (inactive)
CN(C)c1ccc(C(c2ccc(Cl)cc2)c2ccc(N(C)C)cc2)cc1 | > 100 µM (inactive)

---

# Tested on: KM12
# assay-details: NCI tumour cell line growth inhibition, 48 h
Activity calls are given as the source filed them. No stated cut-off is given here; in the data, active = GI50 up to about 1.1 µM and inactive = higher.
quantity-kind: GI50

CC(C)OCC1CC(CC(=O)Nc2nncs2)C(=O)O1 (stereo not given) | > 100 µM (inactive)
O=C1C[C@@]23CCC4(CC2CCC[C@H]3O1)OCCO4 (stereo not given in full) | > 100 µM (inactive)
O=C1NC(=O)C(c2c[nH]c3cc(Br)ccc23)=C1c1cn(C(c2ccccc2)(c2ccccc2)c2ccccc2)cn1 | 9.23 µM (inactive)
Cc1cc(C)nc(NS(=O)(=O)c2ccc(Nc3c4ccc(Cl)cc4nc4c(C(=O)Nc5ccc(S(=O)(=O)N=C(N)N)cc5)cccc34)cc2)n1 | > 100 µM (inactive)
CCOC(=O)/C(=C/c1ccc(C(F)(F)F)cc1)N(CC)CC | 44.4 µM (inactive)
CCOC(=O)c1cc([N+](=O)[O-])c(Sc2ncnc3nc[nH]c23)c([N+](=O)[O-])c1 | 9.2 µM (inactive)
Cn1c2c(c3c(=O)[nH]ncc31)CCCc1ccccc1-2 | 37.3 µM (inactive)
COC(=O)C1CC/C(=N\c2cccc(C(F)(F)F)c2)N1 (stereo not given) | > 100 µM (inactive)
O=c1cc(N2CCOCC2)[nH]c(=O)n1-c1ccc(F)cc1 | > 100 µM (inactive)
Clc1ccc(CCn2cncn2)cc1 | > 100 µM (inactive)
CCO/C(CCn1[nH]c(=O)c(Cl)c(Cl)c1=O)=N\NC(=O)C(=O)NN | > 100 µM (inactive)
CC(C)C1OC2(C)OC(=N)C1(C#N)C(C#N)(C#N)C2C (stereo not given) | 52 µM (inactive)
CCCC1NC(=O)C(CC(C)C)NC(=O)c2cccc(n2)C(=O)NC(CC(C)C)C(=O)NC(CCC)C(=O)NC(C(=O)OC)CCCCNC1=O (stereo not given) | 27.3 µM (inactive)
O=C(Cn1c(=O)oc2ccc(C(=O)c3ccc(F)cc3)cc21)c1ccc([N+](=O)[O-])cc1 | 22.8 µM (inactive)
CC12c3ccccc3C(OC=O)(c3ccccc31)C1(C)c3ccccc3C2(OC=O)c2ccccc21 | > 100 µM (inactive)
COc1ccc(-c2c3c(n(C4OC(COC(C)=O)C(OC(C)=O)C(OC(C)=O)C4OC(C)=O)c(=S)c2C#N)CC(C)(C)CC3=O)cc1 (stereo not given) | 74.8 µM (inactive)
COC(=O)CC(=O)OSc1ccccc1 | 25.5 µM (inactive)
COc1cc(/C=C2\C(=O)N(c3cccc([N+](=O)[O-])c3)C(c3ccccc3)S2(=O)=O)cc(OC)c1OC (stereo not given) | 92.7 µM (inactive)
O=C(O)CSC1=NCCN1 | > 100 µM (inactive)
C[C@@H](C(=O)O)N1C(c2ccco2)=C(/C(C=O)=C\c2ccco2)C(=O)/C1=C\c1ccco1 | > 100 µM (inactive)
